# Protocol description: clinical
# Experimental parameters: human, in vivo, Subject A, Urine Results
Known concentration at 3 day of a selection of compounds

Compound	Uom	concentration at 3 day
CNC(=C[N+](=O)[O-])NCCSCc1ccc(CN(C)C)o1	ng/mL	156
NC(N)=Nc1nc(CSCCC(N)=NS(N)(=O)=O)cs1	ng/mL	0
CN(C)CCOC(c1ccccc1)c1ccccc1 [Diphenhydramine]	ng/mL	0

---

Known concentration at 4 day of a selection of molecules
# Protocol description: clinical
# Experimental parameters: human, in vivo, Subject D, Urine Results
Measurement kind: concentration at 4 day

Molecule	Measurement kind	Result
O=C1O[C@H]([C@@H](O)CO)C(O)=C1O	concentration at 4 day	4930 ng/mL
NC(N)=Nc1nc(CSCCC(N)=NS(N)(=O)=O)cs1	concentration at 4 day	0 ng/mL
CN(C)CCOC(c1ccccc1)c1ccccc1 [Diphenhydramine]	concentration at 4 day	0 ng/mL

---

Known concentration at 1 day of a selection of compounds
# Protocol description: clinical
# Experimental parameters: human, in vivo, Subject B, Urine Results
Measurement kind: concentration at 1 day (ng/mL)

Compound	Uom	Numeric value
CN(C)CCOC(c1ccccc1)c1ccccc1 [Diphenhydramine]	ng/mL	0
NC(N)=Nc1nc(CSCCC(N)=NS(N)(=O)=O)cs1	ng/mL	0

---

# Protocol description: clinical
# Experimental parameters: human, in vivo, Subject C, Urine Results
Known concentration at 6 day of a selection of compounds
Measurement kind: concentration at 6 day

Compound	Result
NC(N)=Nc1nc(CSCCC(N)=NS(N)(=O)=O)cs1	429 ng/mL
CN(C)CCOC(c1ccccc1)c1ccccc1 [Diphenhydramine]	151000 ng/mL
O=C1O[C@H]([C@@H](O)CO)C(O)=C1O	1040 ng/mL

---

Known concentration at 8 day of a selection of molecules
# Protocol description: clinical
# Experimental parameters: human, in vivo, Subject C, Urine Results

Molecule	concentration at 8 day, ng/mL
O=C1O[C@H]([C@@H](O)CO)C(O)=C1O [Ascorbic Acid]	1610
NC(N)=Nc1nc(CSCCC(N)=NS(N)(=O)=O)cs1 [Famotidine]	139
CN(C)CCOC(c1ccccc1)c1ccccc1 [Diphenhydramine]	8840

---

# Protocol description: clinical
# Experimental parameters: human, in vivo, Subject C, Urine Results

Compound	concentration at 3 day, ng/mL
CN(C)CCOC(c1ccccc1)c1ccccc1 [Diphenhydramine]	0
NC(N)=Nc1nc(CSCCC(N)=NS(N)(=O)=O)cs1 [Famotidine]	0
O=C1O[C@H]([C@@H](O)CO)C(O)=C1O [Ascorbic Acid]	4540

---

Known Subject D, Urine Results of a selection of compounds
# Protocol description: clinical
# Experimental parameters: human, in vivo, 4 day

Compound	Subject D, Urine Results
NC(N)=Nc1nc(CSCCC(N)=NS(N)(=O)=O)cs1	0 ng/m
CNC(=C[N+](=O)[O-])NCCSCc1ccc(CN(C)C)o1	51.5 ng/m
Cc1cc2nc3c(=O)[nH]c(=O)nc-3n(C[C@H](O)[C@H](O)[C@H](O)CO)c2cc1C	4330 ng/m
O=C1O[C@H]([C@@H](O)CO)C(O)=C1O	3426 ng/m
CN(C)CCOC(c1ccccc1)c1ccccc1 [Diphenhydramine]	0 ng/m

---

Known concentration at 4 day of a selection of compounds
# Protocol description: clinical
# Experimental parameters: human, in vivo, Subject B, Urine Results

Compound	concentration at 4 day / ng/mL
NC(N)=Nc1nc(CSCCC(N)=NS(N)(=O)=O)cs1 [Famotidine]	0
CN(C)CCOC(c1ccccc1)c1ccccc1 [Diphenhydramine]	0

---

# Protocol description: clinical
# Experimental parameters: human, in vivo, 1 day
Measurement kind: Subject D, Urine Results (ng/m)

Compound	Uom	Numeric value
O=C1O[C@H]([C@@H](O)CO)C(O)=C1O	ng/m	4167
Cc1cc2nc3c(=O)[nH]c(=O)nc-3n(C[C@H](O)[C@H](O)[C@H](O)CO)c2cc1C	ng/m	819
NC(N)=Nc1nc(CSCCC(N)=NS(N)(=O)=O)cs1	ng/m	0
CNC(=C[N+](=O)[O-])NCCSCc1ccc(CN(C)C)o1	ng/m	0
CN(C)CCOC(c1ccccc1)c1ccccc1 [Diphenhydramine]	ng/m	0

---

# Protocol description: clinical
# Experimental parameters: human, in vivo
# note: exactly 2 ng/mL is not below, so it is false; use true for concentration at 5 day strictly under it

Compound	Qualitative label
NC(N)=Nc1nc(CSCCC(N)=NS(N)(=O)=O)cs1 [Famotidine]	false
CNC(=C[N+](=O)[O-])NCCSCc1ccc(CN(C)C)o1 [Ranitidine]	true
CN(C)CCOC(c1ccccc1)c1ccccc1 [Diphenhydramine]	true
O=C1O[C@H]([C@@H](O)CO)C(O)=C1O [Ascorbic Acid]	false
Cc1cc2nc3c(=O)[nH]c(=O)nc-3n(C[C@H](O)[C@H](O)[C@H](O)CO)c2cc1C [Riboflavin]	false
COc1ccc2c(c1)[C@]13CCCC[C@@H]1[C@H](C2)N(C)CC3 [DXM, Dextromethorphan]	true
CN(C)C(=O)C(CCN1CCC(O)(c2ccc(Cl)cc2)CC1)(c1ccccc1)c1ccccc1 [Loperamide]	true

---

Known concentration at 8 day of a selection of molecules
# Protocol description: clinical
# Experimental parameters: human, in vivo, Average of Urine Samples

Molecule	concentration at 8 day
CNC(=C[N+](=O)[O-])NCCSCc1ccc(CN(C)C)o1	10.4 ng/mL
NC(N)=Nc1nc(CSCCC(N)=NS(N)(=O)=O)cs1	43.2 ng/mL
O=C1O[C@H]([C@@H](O)CO)C(O)=C1O	2100 ng/mL
Cc1cc2nc3c(=O)[nH]c(=O)nc-3n(C[C@H](O)[C@H](O)[C@H](O)CO)c2cc1C	5710 ng/mL
CN(C)CCOC(c1ccccc1)c1ccccc1 [Diphenhydramine]	88700 ng/mL

---

# Protocol description: clinical
# Experimental parameters: human, in vivo, Average of Urine Samples
Known concentration at 3 day of a selection of molecules

Molecule	Uom	concentration at 3 day
CNC(=C[N+](=O)[O-])NCCSCc1ccc(CN(C)C)o1 [Ranitidine]	ng/mL	351
Cc1cc2nc3c(=O)[nH]c(=O)nc-3n(C[C@H](O)[C@H](O)[C@H](O)CO)c2cc1C [Riboflavin]	ng/mL	2960
CN(C)CCOC(c1ccccc1)c1ccccc1 [Diphenhydramine]	ng/mL	0
NC(N)=Nc1nc(CSCCC(N)=NS(N)(=O)=O)cs1 [Famotidine]	ng/mL	0
O=C1O[C@H]([C@@H](O)CO)C(O)=C1O [Ascorbic Acid]	ng/mL	2260

---

Known concentration at 6 day of a selection of molecules
# Protocol description: clinical
# Experimental parameters: human, in vivo, Subject D, Urine Results

Molecule	concentration at 6 day, ng/mL
NC(N)=Nc1nc(CSCCC(N)=NS(N)(=O)=O)cs1 [Famotidine]	1670
CN(C)CCOC(c1ccccc1)c1ccccc1 [Diphenhydramine]	684000
O=C1O[C@H]([C@@H](O)CO)C(O)=C1O [Ascorbic Acid]	4400

---

# Protocol description: clinical
# Experimental parameters: human, in vivo, Average of Urine Samples
# From the text: All other markers were obtained from commercial sources. Urine and saliva were collected prior to each day's dosing of marker confirming the presence or absence of markers before the experiment started. […] The presence of all 7 markers at day 8 would confirm that all markers were ingested in the previous 7 day one week period. Healthy volunteers with no recent exposure to the markers who were not currently taking prescribed medications, OTC medications or vitamins and supplements were chosen. […]
# note: exactly 2000 ng/mL is not below, so it is rule not met; use rule met for concentration at 6 day strictly under it

Compound	Qualitative label
CNC(=C[N+](=O)[O-])NCCSCc1ccc(CN(C)C)o1	rule met
CN(C)CCOC(c1ccccc1)c1ccccc1 [Diphenhydramine]	rule not met
Cc1cc2nc3c(=O)[nH]c(=O)nc-3n(C[C@H](O)[C@H](O)[C@H](O)CO)c2cc1C	rule not met
NC(N)=Nc1nc(CSCCC(N)=NS(N)(=O)=O)cs1	rule met

---

# Protocol description: Multiple Marker Experiment 2: urine samples, simulated non-adherence (one marker dose skipped per subject), LC-MS/MS
# Experimental parameters: human, in vivo
Known concentration at 2 day of a selection of molecules

Molecule	concentration at 2 day / ng/mL
CN(C)C(=O)C(CCN1CCC(O)(c2ccc(Cl)cc2)CC1)(c1ccccc1)c1ccccc1 [Loperamide]	0
COc1ccc2c(c1)[C@]13CCCC[C@@H]1[C@H](C2)N(C)CC3	0

---

# Protocol description: clinical
# Experimental parameters: human, in vivo, 5 day
# Description: All other markers were obtained from commercial sources. Urine and saliva were collected prior to each day's dosing of marker confirming the presence or absence of markers before the experiment started. […] The presence of all 7 markers at day 8 would confirm that all markers were ingested in the previous 7 day one week period. Healthy volunteers with no recent exposure to the markers who were not currently taking prescribed medications, OTC medications or vitamins and supplements were chosen. […]
Tag: true (1) if measured Subject C, Urine Results is not below 1000 ng/m, false (0) if it is.

Molecule	Qualitative label
CNC(=C[N+](=O)[O-])NCCSCc1ccc(CN(C)C)o1	false (0)
NC(N)=Nc1nc(CSCCC(N)=NS(N)(=O)=O)cs1	false (0)
O=C1O[C@H]([C@@H](O)CO)C(O)=C1O	true (1)
CN(C)CCOC(c1ccccc1)c1ccccc1 [Diphenhydramine]	false (0)
Cc1cc2nc3c(=O)[nH]c(=O)nc-3n(C[C@H](O)[C@H](O)[C@H](O)CO)c2cc1C	true (1)
